Run description: Selectivity index, ratio of EC50 for cytotoxicity against human IMR90 cells to EC50 for antitrypanosomal activity against Trypanosoma brucei 90-13 bloodstream forms
Type: toxicity, cell-based
Cond: read-out: Ratio EC50
Measured metric: selectivity ratio

Worked examples, 6 compounds total:
O=C(Nc1ccc(S(=O)(=O)N2CCC(F)CC2)cc1)c1ccc([N+](=O)[O-])o1 | > 60
CC1(C)CCN(S(=O)(=O)c2ccc(NC(=O)c3ccc([N+](=O)[O-])s3)cc2)CC1 | > 2500
O=C(Nc1cccc(S(=O)(=O)N2CCOCC2)c1)c1ccc([N+](=O)[O-])o1 | > 17
O=C(Nc1ccc(S(=O)(=O)N2CCCCC2)cc1)c1ccc([N+](=O)[O-])o1 | > 114
O=C(Nc1ccc(S(=O)(=O)N2CCOCC2)cc1)c1ccc([N+](=O)[O-])s1 | > 417
CC1(C)CCN(S(=O)(=O)c2ccc(NC(=O)c3ccc([N+](=O)[O-])o3)cc2)CC1 | > 278

Q: Consider the compound O=C(Nc1ccc(S(=O)(=O)N2CCC3(CCCCC3)CC2)cc1)c1ccc([N+](=O)[O-])o1 and give its measured selectivity ratio.
Result: > 833

Q: Consider the compound CC1(C)CCN(S(=O)(=O)c2cccc(NC(=O)c3cccc([N+](=O)[O-])c3)c2)CC1 and give its measured selectivity ratio.
Result: > 2

Q: Consider the compound CC1(C)CCN(S(=O)(=O)c2cccc(NC(=O)c3ccc([N+](=O)[O-])o3)c2)CC1 and give its measured selectivity ratio.
Result: > 78
